system: Staphylococcus aureus; experiment: Induction of cytoplasmic membrane disruption in Staphylococcus aureus FDA 209P assessed as change in potassium permeability after 30 mins; type: functional; conditions: 0.5 h, read-out: ED50 (the source's name)
pEC50: −log10 of the molar value. *1 amine or outer side, *2 acyl side, *3 side chain or, on linkers, in order; H or OH if unused. Where a SMILES comes first, the peptide text is derived from it. [ ]: non-standard residue; d: D form. X1 = O=C(/C(=C/c1cccnc1)N[*:1])[*:2]; X2 = O=C(/C(=C/c1ccccc1)N[*:1])[*:2]; d3Pal = N[C@H](Cc1cccnc1)C(=O)O; Orn = NCCC[C@H](N)C(=O)O
Response key: yes (1) means pEC50 >= 5; no (0) means pEC50 < 5.

{"Compound": "CC(C)C[C@@H]1NC(=O)[C@H](CCCN)NC(=O)[C@H](C(C)C)NC(=O)[C@@H]2CCCN2C(=O)[C@@H](Cc2cccnc2)NC(=O)[C@H](CC(C)C)NC(=O)[C@H](CCCN)NC(=O)[C@H](C(C)C)NC(=O)[C@@H]2CCCN2C(=O)[C@@H](Cc2cccnc2)NC1=O (cyclo(L[d3Pal]PV[Orn]L[d3Pal]PV[Orn]))", "Discrete Label": "no (0)"}
{"Compound": "CC(C)C[C@@H]1NC(=O)[C@H](CCCN)NC(=O)[C@H](C(C)C)NC(=O)[C@@H]2CCCN2C(=O)[C@@H](Cc2ccccc2)NC(=O)[C@H](CC(C)C)NC(=O)[C@H](CCCN)NC(=O)[C@H](C(C)C)NC(=O)[C@@H]2CCCN2C(=O)[C@@H](Cc2ccccc2)NC1=O [GRAMICIDIN S] (cyclo(L[dF]PV[Orn]L[dF]PV[Orn]))", "Discrete Label": "yes (1)"}
{"Compound": "CC(C)C[C@@H]1NC(=O)[C@H](CCCN)NC(=O)[C@H](C(C)C)NC(=O)[C@@H]2CCCN2C(=O)/C(=C/c2ccccc2)NC(=O)[C@H](CC(C)C)NC(=O)[C@H](CCCN)NC(=O)[C@H](C(C)C)NC(=O)[C@@H]2CCCN2C(=O)/C(=C/c2ccccc2)NC1=O (cyclo(L[X2]PV[Orn]L[X2]PV[Orn]))", "Discrete Label": "yes (1)"}
{"Compound": "CC(C)C[C@@H]1NC(=O)[C@H](CCCN)NC(=O)[C@H](C(C)C)NC(=O)[C@@H]2CCCN2C(=O)/C(=C/c2cccnc2)NC(=O)[C@H](CC(C)C)NC(=O)[C@H](CCCN)NC(=O)[C@H](C(C)C)NC(=O)[C@@H]2CCCN2C(=O)/C(=C/c2cccnc2)NC1=O (cyclo(L[X1]PV[Orn]L[X1]PV[Orn]))", "Discrete Label": "yes (1)"}
{"Compound": "CC(C)C[C@@H]1NC(=O)[C@H](CCCN)NC(=O)[C@H](C(C)C)NC(=O)[C@@H]2CCCN2C(=O)/C(=C/c2ccccc2)NC(=O)[C@H](CC(C)C)NC(=O)[C@H](CCCN)NC(=O)[C@H](C(C)C)NC(=O)[C@@H]2CCCN2C(=O)/C(=C/c2cccnc2)NC1=O (cyclo(L[X2]PV[Orn]L[X1]PV[Orn]))", "Discrete Label": "yes (1)"}
{"Compound": "CC(C)C[C@@H]1NC(=O)[C@H](C)NC(=O)[C@H](C(C)C)NC(=O)[C@@H]2CCCN2C(=O)/C(=C/c2cccnc2)NC(=O)[C@H](CC(C)C)NC(=O)[C@H](C)NC(=O)[C@H](C(C)C)NC(=O)[C@@H]2CCCN2C(=O)/C(=C/c2cccnc2)NC1=O (cyclo(AL[X1]PVAL[X1]PV))", "Discrete Label": "no (0)"}
